MEASURED ON: Vascular endothelial growth factor receptor 2 (Homo sapiens)
Sequence (P35968 whole entry): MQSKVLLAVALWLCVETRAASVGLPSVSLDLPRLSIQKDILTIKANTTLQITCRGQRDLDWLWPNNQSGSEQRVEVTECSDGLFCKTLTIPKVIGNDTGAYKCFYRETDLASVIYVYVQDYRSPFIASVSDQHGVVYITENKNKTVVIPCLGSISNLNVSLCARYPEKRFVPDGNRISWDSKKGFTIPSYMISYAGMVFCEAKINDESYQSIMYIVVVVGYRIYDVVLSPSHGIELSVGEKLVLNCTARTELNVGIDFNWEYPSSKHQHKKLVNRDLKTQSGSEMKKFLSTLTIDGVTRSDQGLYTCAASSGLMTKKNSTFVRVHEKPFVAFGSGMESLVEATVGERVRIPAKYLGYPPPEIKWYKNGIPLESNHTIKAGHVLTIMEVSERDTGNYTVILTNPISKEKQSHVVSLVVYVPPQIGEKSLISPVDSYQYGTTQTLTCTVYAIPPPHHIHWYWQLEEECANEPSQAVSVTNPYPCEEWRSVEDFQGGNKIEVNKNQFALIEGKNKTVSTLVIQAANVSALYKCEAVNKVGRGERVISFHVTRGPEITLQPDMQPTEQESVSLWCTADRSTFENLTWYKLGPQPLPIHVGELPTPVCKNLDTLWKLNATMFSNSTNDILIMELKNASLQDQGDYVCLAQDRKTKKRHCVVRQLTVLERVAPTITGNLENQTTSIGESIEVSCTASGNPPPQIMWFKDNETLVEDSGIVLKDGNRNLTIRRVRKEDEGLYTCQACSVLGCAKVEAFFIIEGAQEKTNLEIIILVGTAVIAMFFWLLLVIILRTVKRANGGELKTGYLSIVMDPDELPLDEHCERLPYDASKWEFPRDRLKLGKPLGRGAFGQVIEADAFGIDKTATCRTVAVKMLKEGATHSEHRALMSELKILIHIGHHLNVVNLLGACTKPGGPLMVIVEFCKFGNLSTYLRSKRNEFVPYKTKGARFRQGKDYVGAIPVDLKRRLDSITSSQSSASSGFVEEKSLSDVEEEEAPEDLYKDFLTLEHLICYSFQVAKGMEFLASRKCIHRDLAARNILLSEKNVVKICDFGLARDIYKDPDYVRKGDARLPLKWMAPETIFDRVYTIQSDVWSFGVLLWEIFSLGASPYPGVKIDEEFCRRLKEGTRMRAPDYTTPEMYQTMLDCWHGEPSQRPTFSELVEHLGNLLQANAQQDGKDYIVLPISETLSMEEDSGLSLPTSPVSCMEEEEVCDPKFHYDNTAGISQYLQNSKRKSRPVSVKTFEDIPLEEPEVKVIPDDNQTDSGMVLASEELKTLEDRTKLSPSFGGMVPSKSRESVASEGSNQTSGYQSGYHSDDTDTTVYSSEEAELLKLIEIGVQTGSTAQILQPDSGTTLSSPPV
TEST DETAILS: Inhibition of VEGFR2 (unknown origin)
VALUE TYPE: IC50

> print(dat)
                           smiles.structure                               measured.on  value.type      result
1  CSCCCNC(=O)c1ccc2c(c1)NC(=O)/C2=C\c1[nH]c(C)cc1C  Vascular endothelial growth factor receptor 2 (Homo sapiens)        IC50  Not Active
2  Cc1cc(C)c(/C=C2\C(=O)Nc3ccc(NC(=O)CCCCCCC(=O)NO)cc32)[nH]1  Vascular endothelial growth factor receptor 2 (Homo sapiens)        IC50  Not Active
3  Nc1ccccc1NC(=O)CCCCC(=O)Nc1ccc2c(c1)/C(=C/c1ccc[nH]1)C(=O)N2  Vascular endothelial growth factor receptor 2 (Homo sapiens)        IC50  Not Active
4  Nc1ccccc1NC(=O)CCCCCCC(=O)Nc1ccc2c(c1)/C(=C/c1ccc[nH]1)C(=O)N2  Vascular endothelial growth factor receptor 2 (Homo sapiens)        IC50  Not Active
